Measured quantity: melting point

As a guide, the following entries are already answered.
C[C@@]12CC[C@@H]3[C@@](CC[C@H]4[C@@]3(C)CCC[C@@]4(C)C(=O)NCCN3CCCC3)(CC1=O)C2
136 to 137 °C
C[C@@]12CC[C@@H]3[C@@](CC[C@H]4[C@@]3(C)CCC[C@@]4(C)C(=O)OCC(=O)Nc3ccccc3Cl)(CC1=O)C2
107 to 108 °C
COC(=O)C(Cc1c[nH]c2ccccc12)NC(=O)C1(C)CCCC2(C)C3CCC4(C)CC3(CCC12)CC4=O (stereo not drawn)
165 to 166 °C
COC(=O)C(Cc1ccccc1)NC(=O)C1(C)CCCC2(C)C3CCC4(C)CC3(CCC12)CC4=O (stereo not drawn)
147 to 148 °C
C[C@@]12CC[C@@H]3[C@@](CC[C@H]4[C@@]3(C)CCC[C@@]4(C)C(=O)OCC(=O)N3CCN(Cc4ccccc4)CC3)(CC1=O)C2
149 to 150 °C

Quick one: give measured melting point for "C[C@@]12CC[C@@H]3[C@@](CC[C@H]4[C@@]3(C)CCC[C@@]4(C)C(=O)OCC(=O)N3CCCCCC3)(CC1=O)C2"
110 to 112 °C
